- ASSAY_PROCEDURE: Viability qHTS for spleen associated tyrosine kinase inhibitor (SYKi) naive MV4-11 cells (AID 1963823); further: nearly all actives have a fitted effect of over 40% in size; further: potency means the concentration at half of the fitted maximal effect
- CONDITION_PARAMETERS: MV4-11 AML viability, CellTiter-Glo luminescence, 72 h; series mostly up to 45 µM
Records with an inconclusive call do not appear. The source made the active and inactive calls. The call rests on the fitted dose curve; in most records, active means well fitted cell-killing curve with a large enough effect; inconclusive means small, poorly fitted or top-dose-only effect, or effect the other way; inactive means no such curve, though single readings can be large or run the other way.
PROPERTY: Potency

Look over these answered cases.
COMPOUND: NCCc1ccn[nH]1
Potency: inactive

COMPOUND: O=C(O)Cn1cnnn1
Potency: inactive

COMPOUND: CC(=O)OC1C(=O)C2(C)C(O)CC3OCC3(OC(C)=O)C2C(OC(=O)c2ccccc2)C2(O)CC(OC(=O)C(O)C(NC(=O)c3ccccc3)c3ccccc3)C(C)=C1C2(C)C (stereo not drawn)
Potency: 0.0058 µM (active)

COMPOUND: CCOC(=O)c1ccnc(CNCC(=O)N(CC)CCN(C)C)c1
Potency: inactive

COMPOUND: C[C@@H](OC(=O)/C=C/c1ccc(O)cc1)C1=C[C@]2(C=C[C@@H]3C(C(=O)O)=CO[C@@H](O[C@@H]4O[C@H](CO[C@@H]5O[C@H](CO)[C@@H](O)[C@H](O)[C@H]5O)[C@@H](O)[C@H](O)[C@H]4O)[C@@H]32)OC1=O
Potency: inactive

For this compound ( CCCOc1ccc2c(c1)CC[C@@H]1[C@@H]2CC[C@]2(C)C(OC)CC[C@@H]12 (stereo partly drawn) ), measured Potency is inactive

For this compound ( `COc1cccc2c1C(=O)c1c(O)c3c(c(O)c1C2=O)C[C@@](O)(C(=O)CO)C[C@@H]3O[C@H]1C[C@H](N)[C@H](O[C@@H]2CCCCO2)[C@H](C)O1` ), measured Potency is 0.75 µM (active)

For this compound ( CC(C)CC1NC(=O)C(C)NC(=O)C(CC(C)C)OC(=O)CCCNC1=O (stereo not drawn) ), measured Potency is inactive

====

- ASSAY_PROCEDURE: Quantitative highthroughput screen to assess conditional lethalithy of SEM cells grown in RPMI1640 with unreated serum (RPMI+s) (AID 1963883); further: nearly all actives have a fitted effect of over 35% in size;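 on viability: 100% = DMSO wells and 0% = empty wells without cells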
- CONDITION_PARAMETERS: SEM B-ALL cells, CellTiter-Glo viability, 48 h; series mostly up to 45.8 µM
Inconclusive results are not listed. Active and inactive are the calls of the source. Calls come from the whole dose curve; as a rule, active = well fitted cell-killing curve with a large enough effect; inconclusive = small, poorly fitted or top-dose-only effect, or effect the other way; inactive = no such curve, though single readings can be large or run the other way. Bridge positions count the residues as written; N and C are the ends. Where a SMILES comes first, the peptide text is derived from it. Square brackets hold non-standard residues; d marks the D form. Peptide text beside a SMILES is read from it. [ ]: non-standard residue; d: D form. The star is where a group is joined. * marks the point of attachment. ξ: configuration not given here. Sta = CC(C)C[C@H](N)[C@@H](O)CC(=O)O; Octanoyl(6-Me) = CCC(C)CCCCC(=O)*; ξThr(3R) = C[C@@H](O)C(N)C(=O)O; Isovaleryl = CC(C)CC(=O)*; dDab = NCC[C@@H](N)C(=O)O; Dab = NCC[C@H](N)C(=O)O
Mark one answer only. Choices: Y (active), N (inactive)

Answered cases to consult:
MOLECULE: Oc1cc2c(cc1O)C1c3ccc(O)c(O)c3OCC1(O)C2 (stereo not given)
CLASS_NAME: N
//
MOLECULE: O=C(c1cncc(Br)c1)N1CCC(N2CCCC2)CC1
CLASS_NAME: N
//
MOLECULE: CC(C)CC(=O)N[C@H](C(=O)N[C@H](C(=O)N[C@@H](CC(C)C)[C@@H](O)CC(=O)N[C@@H](C)C(=O)N[C@@H](CC(C)C)[C@@H](O)CC(=O)O)C(C)C)C(C)C (Isovaleryl-VV[Sta]A[Sta]-OH)
CLASS_NAME: Y
//
MOLECULE: CCC(C)CCCCC(=O)N[C@@H](CCN)C(=O)NC(C(=O)N[C@H](CCN)C(=O)N[C@@H]1CCNC(=O)C([C@@H](C)O)NC(=O)[C@@H](CCN)NC(=O)[C@@H](CCN)NC(=O)[C@@H](CC(C)C)NC(=O)[C@H](Cc2ccccc2)NC(=O)[C@H](CCN)NC1=O)[C@@H](C)O (stereo partly drawn) ({Octanoyl(6-Me)}-[Dab][ξThr(3R)][dDab][dDab][Dab]F[dL][dDab][dDab][ξThr(3R)]; lactam 4-C)
CLASS_NAME: N

# fetch the recorded call for CO[C@@H]1C(N(C)C(=O)c2ccccc2)C[C@H]2O[C@]1(C)n1c3ccccc3c3c4c(c5c6ccccc6n2c5c31)C(=O)NC4=O (stereo not given in full) here Y

====

- ASSAY_PROCEDURE: Quantitative highthroughput screen to assess conditional lethalithy of NOMO1 cells grown in RPMI1640 with dialyzed fetal bovine serum (RPMI+ds) (AID 1963877); further: nearly all actives have a fitted effect of over 30% in size;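 on viability: 100% = DMSO control wells and 0% = empty wells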
- CONDITION_PARAMETERS: NOMO1 in RPMI+dialyzed FBS viability, ATP luminescence, 48 h; series mostly up to 45.8 µM
Records with an inconclusive call do not appear. The source made the active and inactive calls. Calls follow the shape of the dose curve; as a rule, active = well fitted cell-killing curve with a large enough effect; inconclusive = small, poorly fitted or top-dose-only effect; inactive = flat fitted curve, though single readings scatter.
Mark one answer only. Choices: active, inactive

Answered cases to consult:
COMPOUND: CNC(=O)c1ccc(Nc2ncc(C(F)(F)F)c(NCc3nccnc3N(C)S(C)(=O)=O)n2)cc1
CLASS_NAME: inactive
//
COMPOUND: CN(C)Cc1ccc(-c2nc3cccc4c3n2CCNC4=O)cc1
CLASS_NAME: inactive
//
COMPOUND: Cn1ccc2cc3c(cc21)CCN3C(=O)Nc1cccnc1
CLASS_NAME: inactive
//
COMPOUND: C[C@H](O)[C@@H]1C(=O)N2C(C(=O)O)=C(S[C@@H]3CN[C@H](CNS(N)(=O)=O)C3)[C@@H](C)[C@@H]12
CLASS_NAME: inactive
//
COMPOUND: Cc1cccc(C)c1OCC(=O)N[C@@H](Cc1ccccc1)[C@@H](O)C[C@H](Cc1ccccc1)NC(=O)[C@H](C(C)C)N1CCCNC1=O
CLASS_NAME: inactive
//
COMPOUND: O=C1C(c2c(O)[nH]c3ccccc23)=Nc2ccccc21
CLASS_NAME: inactive
//
COMPOUND: COc1ccc2c(c1OC)C(=O)OC2[C@H]1c2c(cc3c(c2OC)OCO3)CCN1C (some centres undefined)
CLASS_NAME: active
//
COMPOUND: CN(C)c1ccc2nc3ccc(=[N+](C)C)cc-3sc2c1
CLASS_NAME: active

# fetch the recorded call for CC(C(C)N1CC(=O)NC(=O)C1)N1CC(=O)NC(=O)C1 (centres undefined) here inactive

# fetch the recorded call for `Nc1ccc(S(N)(=O)=O)cc1` here inactive

# fetch the recorded call for `COC(=O)N[C@H](C(=O)N[C@@H](Cc1ccccc1)[C@@H](O)CN(Cc1ccc(-c2ccccn2)cc1)NC(=O)[C@@H](NC(=O)OC)C(C)(C)C)C(C)(C)C` here inactive

# fetch the recorded call for CC(C)C[C@H](NC(=O)CNC(=O)c1cc(Cl)ccc1Cl)B1OC(=O)CC(CC(=O)O)(C(=O)O)O1 (some centres undefined) here active

# fetch the recorded call for `COC(=O)N1CCN(Cc2cccc(NC(=O)Nc3ccc(C)nc3)c2F)CC1` here inactive

# fetch the recorded call for COc1cc2c(cc1OC)C1CC(=O)C(CC(C)C)CN1CC2 (centres undefined) here inactive

# fetch the recorded call for `CCN[C@H]1C[C@H](C)S(=O)(=O)c2sc(S(N)(=O)=O)cc21` here inactive

# fetch the recorded call for COc1ccc(C2CC(c3ccccc3)=NN2c2ccc(S(N)(=O)=O)cc2)cc1 (centres undefined) here active

# fetch the recorded call for `Cc1ccc(C(=O)Nc2ccc(S(=O)(=O)O)c3cc(S(=O)(=O)O)cc(S(=O)(=O)O)c23)cc1NC(=O)c1cccc(NC(=O)Nc2cccc(C(=O)Nc3cc(C(=O)Nc4ccc(S(=O)(=O)O)c5cc(S(=O)(=O)O)cc(S(=O)(=O)O)c45)ccc3C)c2)c1` here active

# fetch the recorded call for `O=P(O)(O)C(O)(Cc1cccnc1)P(=O)(O)O` here inactive

# fetch the recorded call for `Nc1ncnc2c1ncn2[C@@H]1O[C@@H](CO)[C@H](O)[C@H]1O` here inactive

====

- ASSAY_PROCEDURE: Quantitative highthroughput screen to assess conditional lethalithy of NOMO1 cells grown in RPMI1640 with dialyzed fetal bovine serum (RPMI+ds) (AID 1963877); further: nearly all actives have a fitted effect of over 30% in size;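 on viability: 100% = DMSO control wells and 0% = empty wells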
- CONDITION_PARAMETERS: NOMO1 in RPMI+dialyzed FBS viability, ATP luminescence, 48 h; series mostly up to 45.8 µM
Records with an inconclusive call do not appear. Activity calls are given as the source filed them. Calls come from the whole dose curve; as a rule, active = well fitted cell-killing curve with a large enough effect; inconclusive = small, poorly fitted or top-dose-only effect; inactive = flat fitted curve, though single readings scatter.
Mark one answer only. Choices: 1 (yes) (active), 0 (no) (inactive)

Answered cases to consult:
MOLECULE: CC(C)CC(=O)Nc1n[nH]c2c1CN(C(=O)C1CCN(C)CC1)C2(C)C
CLASS_NAME: 1 (yes)
--
MOLECULE: COc1ccc(C[C@@H](C)[C@@H](C)Cc2ccc(OC)c(OC)c2)cc1OC
CLASS_NAME: 1 (yes)
--
MOLECULE: OC[C@H]1O[C@@H](Oc2cc(O)cc(C=Cc3ccc(O)cc3)c2)[C@H](O)[C@@H](O)[C@H]1O
CLASS_NAME: 1 (yes)
--
MOLECULE: O=c1[nH]c(=O)n([C@H]2C[C@@H](O)[C@@H](CO)O2)cc1I
CLASS_NAME: 0 (no)
--
MOLECULE: COc1ccc(COc2cc3oc(=O)c4cc(C(C)O)ccc4c3cc2OC)cc1 (configuration not stated)
CLASS_NAME: 0 (no)

In the following, a different molecule is considered.
# fetch the recorded call for `CC(C)(C)OC(=O)CN(Cc1ccc(Cl)cc1)Cc1ccc([N+](=O)[O-])s1` here 0 (no)

Measured values drawn from PubChem BioAssay (NCATS) for this set.
